# target or test system: HLA-A*01:01
# measurement description: IEDB peptide-MHC binding, purified MHC/direct/fluorescence; filed as Kd, often an IC50 or EC50 that approximates it; bounds were set here for any values at or beyond the usual limits of such assays
# conditions used: source organism: Camelpox virus M-96
pKd: −log10 of the molar value.
Reported pKd values for a set of sequences

FTDISMSLY; ≥ 9.00

(Q) Using known records, supply pKd for FYLFTFTIY
(A) ≤ 4.70

(Q) Using known records, supply pKd for MTRVTNNVY
(A) 5.59

(Q) Using known records, supply pKd for SHEQGDIAL
(A) ≤ 4.70

* * *

# target or test system: HLA-A*02:19
# measurement description: IEDB peptide-MHC binding, purified MHC/competitive/fluorescence; filed as Kd, often an IC50 or EC50 that approximates it; bounds were set here for any values at or beyond the usual limits of such assays
# conditions used: source organism: Vibrio vulnificus CMCP6
pKd: −log10 of the molar value.
outcome measure: pKd

(Q) State, for HLA-A*02:19, measured pKd of the sequence listed here: LMLHQQYNQ
(A) ≤ 4.70

* * *

# target or test system: HLA-A*11:01
# measurement description: IEDB peptide-MHC binding, purified MHC/competitive/radioactivity; filed as Kd, often an IC50 or EC50 that approximates it; bounds were set here for any values at or beyond the usual limits of such assays
# conditions used: source organism: Vaccinia virus WR
pKd: −log10 of the molar value.
Bucketed by reported pKd, buckets being low end = under 6, middle = from 6 up to 8, high end = 8 and over

Examples from the recorded data:
IVHSYLKNYK; middle
FMSHVKSVTK; high end
PVYISQFSY; low end
YANCSSISIK; middle
TIRHMWSVVY; low end

Now for another entry.
(Q) For the record ISSKQYPAGR , report the class its pKd corresponds to.
(A) middle

* * *

Reported pIC50 values for a set of sequences
# target or test system: HLA-A*03:01
# measurement description: IEDB peptide-MHC binding, purified MHC/competitive/fluorescence; bounds were set here for any values at or beyond the usual limits of such assays
# conditions used: source organism: Zaire ebolavirus
pIC50 is defined as minus the log10 of a concentration measured in mol/L.

QVEQHHRRT; 5.51

(Q) State, for HLA-A*03:01, measured pIC50 of the sequence listed here: STHNTPVYK
(A) 5.30

* * *

# target or test system: HLA-A*02:11
# measurement description: IEDB peptide-MHC binding, purified MHC/direct/fluorescence; filed as Kd, often an IC50 or EC50 that approximates it; bounds were set here for any values at or beyond the usual limits of such assays
# conditions used: source organism: Kurkino virus
outcome measure: Kd

(Q) Using known records, supply Kd for SLYSGFPSL
(A) ≤ 1 nM

* * *

# target or test system: HLA-A*02:01
# measurement description: IEDB peptide-MHC binding, purified MHC/direct/fluorescence; filed as Kd, often an IC50 or EC50 that approximates it; bounds were set here for any values at or beyond the usual limits of such assays
# conditions used: source organism: Vibrio vulnificus YJ016
outcome measure: Kd

(Q) Using known records, supply Kd for RQLQREGLV
(A) ≥ 5 µM

* * *

# target or test system: HLA-B*39:01
# measurement description: IEDB peptide-MHC binding, purified MHC/competitive/fluorescence; filed as Kd, often an IC50 or EC50 that approximates it; bounds were set here for any values at or beyond the usual limits of such assays
# conditions used: source organism: Orthohantavirus tulaense
pKd: −log10 of the molar value.
outcome measure: pKd

(Q) Using known records, supply pKd for AESICSYWL
(A) ≤ 4.70
